FYI, the data here is from the domain aggregation screens of Martell et al. (2025).

Test: soluble fraction after stress (log2 fold change); higher = more stays soluble; pooled small domains, quantitative proteomics;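 also: 20 min heating vs room temperature control held 20 min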
Conditions: stress: 75 degC
Each entry below carries its reported soluble fraction (log2).
Assay Metric: soluble fraction (log2)

* HMFTGELESRVFELNYVDGLVASAALAGVLTDKGSATPIASRAGGENDMLLVVDRIASYSQIEKIITQLD | 0.0191
* HMSDTVDITKLGIAGKTKEAAEALLKENGFSVESKEENSDTIEKGKVISYSPTKPKNGDRITLIVSSGKK | 0.294
* HMATVNIGNLTFTHKGDYASGTTYAKNDVVYYSTNGNAYIAKQATQGNAPTSTAHWDVFAAGSGG | 0.245
* HMTKASYKITTPSGVNVREGAGKRYAVRKAYPKGKTVTVTQTKEVNGNLWGKTSDGWFAIKYQGAVYASA | -1.39
* HMGMVEFEIGERDHSEDVSRKLFEAGLIEDASDFNQYMIEKKMDDHLQTGKYQIPKGATKDEILELIVR | 0.043
* HMWPDDAIALPTRDGQDVGGAQERTMLAFASGAAGIRTVEEINPDGSITRLRTRYGWPTFETEGARTAAAE | -0.0272
* HMVHSEDLQDHKYVSQLGEVFLKENPNYENIKKSWGDHMVVIKKFGRYPHRNKILNRKSTPEELEFLKG | -0.0435
* HMDQSIDADIINLNFSKNIIKIEENVYYKNNNAKVNADKIEINIETKKLKISMNEQEDEVEIFAK | 0.552
* HMQGEKDDLWREVLDNPDAWWDNRERKNAPGGNPRYPDFKHKDSQTPLWIESRDTPQWAIDALL | 0.259
* HMNEAVVVPDVKGLTLDEADEFFKNSKLRYNVVDSVFSKDVAPGAIVELVPVAGSKVKENRIVFVTINAQ | -0.361
* HMSAAPVGPWALSEFLDAVEKDSVERVTFDDAGKALVAVDADGGRHRVEILPSEGPEILAALRKHSVQFA | 0.181
* HMTSPVEDLLDKAIQLYREENFEEAIAKWEEVLALDPSKLEAKFNIEIAQDRIKEKQIQEDLKSS | 0.341
* HMSDFKDIILKLRNEQGFTQEKLADVLGTSKSTVGMWEMGVRFPSKELYEAIADYFNVDIDYLYGRTDIR | -0.83
* HMNNEISINGNKIYFNKNISKVFIYDISGKLIKHKNNFNNNFIDLSEFNSAFYIIKALDINENYTTKKIFL | -1.69
* HMNSKMTYSELITSMENKEVESVKISSSGDVASVKLKNSKTEKEVKIPSLDSFMTYTEQYLKTGEITLEE | 0.0529
* HMPTMEQTYIGRTMIAEEDMGKNSKIKVSGIYWTAYNKGRVIKKGEEYKITGIEGNKLIVSSK | -0.393
* HMDPKISWESDEKLSANIGHYENSIKPLMGNKYLIELSQLKDKIESHPWVARATIKRIFWNKIHIQLESHD | -0.0642
* HMNIFKLYEENIGPLTPMIADILKEDEAEFPDYWIREAIEIAVKKNARNWKYVHAVLESWQKE | -3.47
* HMNETTVPDVINQNISTGKIIIEDADLEYRIQYIPSEKSSSIGTIINSIPIYGKRVKSGTIVDLKVLG | -0.248
* HMADEGFRQTVLAVLARWESKIHHGQYNALKAKVMNGNWSSFVKQVVKFQGKFIHPDAAKELLGLFG | -3.5
* HMGVNNDIIKHRKLEFMIEMLPDTFTRKEANEIGEGLGISLATLTRYLSSDAFERTGHGRYRKKD | -1.35
* HMVAGHLQEKKGYFYMVLTYRDHEGKRKSKWLPTGLTIKGNKKRAQDLLQDARKNFVPDIPT | -2.37
* HMQRDDMQIDRLIQIVFLLLSRNNLTAKQLAEELGVSTRTIYRDINILSVAGIPITSQKGYGGGLSLLQG | -0.608
* HMASPRVWKDASSGRTLTGEFVELTKDAVKVRRANGDVVSLPLSRLTEEDITFAKGASETGGA | 0.198
* HMTGRVKWYDATKGFGFVTSDEGGDVFLPKGALPAGVADLKTGQRIEFGVVDSRKGAQALGVK | 0.352
* HMRQLISIYNNTIGADEIDQMRNILSNSGYKEGVDFAVQTADKKSVILVRRDLAGMIQEQLSGEGLPS | -0.119
* HMTELKKTAVDTWVKDLGTEQALAKLDTLAVVKLRRLAREYKAFGIAGRAISKADKGMLLAEFRAYYEN | -2.08
* HMKNEQESIAQKLYEAALKNDFVTIQEIQSGGYRLRNDDLTHMRESGVQSNTLIAIQKIFGL | 0.404
* HMPDIFDRGTAHITDAASGVAITFTRTFRIPPEVTMTHKGGTVVAIARLVGSITTGGFTAVLENT | 0.0362
* HMSPQPPNQEAVRTRILDQAAHLFLTIGYAETTVRRIAGAVGIKAASLYHHFGSKDEVFESILIR | 0.274
* HMDIESREAWVDASGMGVRLDRWLTQLAPEFSRNHLQSLIERGAVRVDGQPALVASRKLRIGQQVAVSLIP | -1.31
* HMTAGTTALNKLQQGMSTQQVQAALGTPSDRTVKESGVELWKYYYPYENMLLYLKFRDGHLVSFGTN | -0.594
* HMRLDHIFSVVERLKGVSLGAGDRLEVQKYEDLLTVYKSKNALSSEEAQTLNDILASLLKMMAKYD | -1.05
